experiment: Pharmacokinetics in opioid-dependent patients, Phase IB study, single dose; details: human, serum, 120 mg
measured endpoint: AUC

> print(dat)
                         chemical.structure  measured.endpoint           measurement
1  CC[C@H]1CC2C[C@H]3c4[nH]c5ccc(O)cc5c4CCN(C2)C13                AUC  1600 to 5770 ng·h/mL

###

test: Pharmacokinetics in opioid-dependent patients, Phase IB study, single dose; conditions: human, serum, 180 mg
measured endpoint: Tmax

> print(dat)
                                   compound  measurement
1  CC[C@H]1CC2C[C@H]3c4[nH]c5ccc(O)cc5c4CCN(C2)C13 [noribogaine]     3 to 8 h

###

assay: Pharmacokinetics in opioid-dependent patients, Phase IB study, single dose; settings: human, serum, 60 mg
measured endpoint: Cmax

> print(dat)
                         chemical.structure        measurement
1  CC[C@H]1CC2C[C@H]3c4[nH]c5ccc(O)cc5c4CCN(C2)C13  41.3 to 113 ng/mL

###

assay: Pharmacokinetics in opioid-dependent patients, Phase IB study, single dose; settings: human, serum, 60 mg, Vd/F, mean ± SD, opioid-dependent patients; Cohort 1 (60 mg)
measured endpoint: Vd/F (L)

> print(dat)
                         chemical.structure  unit.spec  measurement
1  CC[C@H]1CC2C[C@H]3c4[nH]c5ccc(O)cc5c4CCN(C2)C13          L         1440

###

test: Pharmacokinetics in opioid-dependent patients, Phase IB study, single dose; settings: human, serum, 60 mg, Half-life, range, opioid-dependent patients; Cohort 1 (60 mg)
measured endpoint: half-life

> print(dat)
                         chemical.structure     measurement
1  CC[C@H]1CC2C[C@H]3c4[nH]c5ccc(O)cc5c4CCN(C2)C13  18.3 to 37.3 h

###

test: Pharmacokinetics in opioid-dependent patients, Phase IB study, single dose; conditions: human, serum, 180 mg
measured endpoint: AUC

> print(dat)
                         chemical.structure            measurement
1  CC[C@H]1CC2C[C@H]3c4[nH]c5ccc(O)cc5c4CCN(C2)C13  3730 to 12300 ng·h/mL

###

assay: Pharmacokinetics in opioid-dependent patients, Phase IB study, single dose; conditions: human, serum, 120 mg
measured endpoint: AUC(0-t)

> print(dat)
                         chemical.structure           measurement
1  CC[C@H]1CC2C[C@H]3c4[nH]c5ccc(O)cc5c4CCN(C2)C13  1560 to 5640 ng·h/mL

###

assay: Pharmacokinetics in opioid-dependent patients, Phase IB study, single dose; conditions: human, serum, 180 mg
measured endpoint: AUC(0-t)

> print(dat)
                         chemical.structure            measurement
1  CC[C@H]1CC2C[C@H]3c4[nH]c5ccc(O)cc5c4CCN(C2)C13  3720 to 10400 ng·h/mL

###

test: Pharmacokinetics in opioid-dependent patients, Phase IB study, single dose; conditions: human, serum, 180 mg, Vd/F, range, opioid-dependent patients; Cohort 3 (180 mg)
measured endpoint: Vd/F

> print(dat)
                         chemical.structure  measured.endpoint    measurement
1  CC[C@H]1CC2C[C@H]3c4[nH]c5ccc(O)cc5c4CCN(C2)C13               Vd/F  581 to 1610 L
